Readings of log10 of IC50 for the listed compounds
Biological target: 5HT-Transporter (Homo sapiens, UniProt P31645)
Construct: Human platelet membranes (Oceanix Biosciences Corporation, Hanover, Md., USA) were thawed; tissue Oceanix Biosciences Corporation, Hanover, Md., USA; host or cells: human platelet membranes
Sequence (P31645 whole entry): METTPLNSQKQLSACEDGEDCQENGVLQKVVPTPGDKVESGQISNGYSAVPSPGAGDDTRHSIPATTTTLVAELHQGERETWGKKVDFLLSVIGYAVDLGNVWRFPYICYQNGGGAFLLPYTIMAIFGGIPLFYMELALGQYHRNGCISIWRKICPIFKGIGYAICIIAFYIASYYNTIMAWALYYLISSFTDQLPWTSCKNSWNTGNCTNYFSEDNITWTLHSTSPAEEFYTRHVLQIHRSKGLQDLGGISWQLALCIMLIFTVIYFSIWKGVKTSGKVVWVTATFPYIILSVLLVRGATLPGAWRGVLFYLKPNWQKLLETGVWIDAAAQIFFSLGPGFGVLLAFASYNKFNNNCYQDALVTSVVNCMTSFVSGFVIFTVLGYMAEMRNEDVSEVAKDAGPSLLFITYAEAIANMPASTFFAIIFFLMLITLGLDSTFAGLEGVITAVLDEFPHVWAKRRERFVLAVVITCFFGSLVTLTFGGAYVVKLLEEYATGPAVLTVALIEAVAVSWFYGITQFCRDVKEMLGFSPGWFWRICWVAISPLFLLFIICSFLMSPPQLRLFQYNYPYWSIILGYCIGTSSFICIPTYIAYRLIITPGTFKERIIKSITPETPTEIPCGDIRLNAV
Assay: Binding experiment for the 5HT-transporter ([3H]paroxetine, human platelet membranes)
Settings: [3H]paroxetine 0.5 nM, read-out: h-5HTT pIC50 (converted)
quantityMeasured: log10 of IC50 (log10 of the value in nM)

# compound, log10 of IC50
records = [
    ("COCCN(C)C(=O)Cn1ccnc(NC2CCN(C/C(C)=C/c3ccccc3)CC2)c1=O", 3.50),
    ("C/C(=C\\c1ccccc1)CN1CCC(Nc2nccn(Cc3ccc(CNC(=O)c4ccco4)cc3)c2=O)CC1", 2.70),
    ("C/C(=C\\c1ccccc1)CN1CCC(Nc2nccn(CC(=O)N3CCN(c4ccc(C)c(C)c4)CC3)c2=O)CC1", 2.00),
    ("C/C(=C\\c1ccccc1)CN1CCC(Nc2nccn(CC(=O)N(CCO)Cc3ccccc3)c2=O)CC1", 3.00),
    ("CCCCCn1ccnc(NC2CCN(C/C(C)=C/c3ccccc3)CC2)c1=O", 2.40),
    ("C/C(=C\\c1ccccc1)CN1CCC(Nc2nccn(-c3cccc(CO)c3)c2=O)CC1", 3.70),
    ("C/C(=C\\c1ccccc1)CN1CCC(Nc2nccn(Cc3ccc(S(C)(=O)=O)cc3)c2=O)CC1", 3.10),
    ("C/C(=C\\c1ccccc1)CN1CCC(Nc2nccn(Cc3cc(C)on3)c2=O)CC1", 3.30),
    ("O=c1c(NC2CCN(C/C=C/c3ccccc3)CC2)nccn1Cc1ccc2ccccc2n1", 3.00),
    ("CCCCS(=O)(=O)NCc1ccc(Cn2ccnc(NC3CCN(C/C(C)=C/c4ccccc4)CC3)c2=O)cc1", 3.00),
    ("O=c1c(NC2CCN(C/C=C/c3ccccc3)CC2)nccn1CC1CCCCO1 (stereo not shown)", 3.70),
    ("CC(=O)CNCCCn1ccnc(NC2CCN(C/C(C)=C/c3ccccc3)CC2)c1=O", 3.10),
    ("C/C(=C\\c1ccccc1)CN1CCC(Nc2nc(Cl)c(-c3cccc(Br)c3)[nH]c2=O)CC1", 2.50),
    ("COC(=O)CC(=O)NCc1ccc(Cn2ccnc(NC3CCN(C/C(C)=C/c4ccccc4)CC3)c2=O)cc1", 3.00),
    ("C/C(=C\\c1ccccc1)CN1CCC(Nc2nccn(-c3cccc(N4CCCCC4)c3)c2=O)CC1", 2.50),
    ("CC(C)(C)OC(=O)NCc1ccc(Cn2ccnc(NC3CCN(C/C=C/c4ccccc4)CC3)c2=O)cc1", 3.10),
    ("C/C(=C\\c1ccccc1)CN1CCC(Nc2nccn(CCCN(Cc3ccccc3)Cc3ccccc3)c2=O)CC1", 2.60),
    ("C/C(=C\\c1ccccc1)CN1CCC(Nc2nccn(Cc3ccc(-c4ccccc4)cc3)c2=O)CC1", 2.50),
    ("C/C(=C\\c1ccccc1)CN1CCC(Nc2nccn(-c3cccc(Nc4ccc(F)cc4)c3)c2=O)CC1", 1.70),
    ("C/C(=C\\c1ccccc1)CN1CCC(Nc2nccn(-c3ccc(CN4CCOCC4)cc3)c2=O)CC1", 3.30),
    ("C/C(=C\\c1ccccc1)CN1CCC(Nc2nccn(CCCN(C)C)c2=O)CC1 [1-14]", 3.80),
    ("C/C(=C\\c1ccccc1)CN1CCC(Nc2nccn(CCOc3ccccc3)c2=O)CC1", 2.20),
    ("C/C(=C\\c1ccccc1)CN1CCC(Nc2nccn(Cc3ccc(CNS(=O)(=O)c4ccccc4)cc3)c2=O)CC1", 2.90),
    ("CCCn1ccnc(NC2CCN(C/C(C)=C/c3ccccc3)CC2)c1=O", 2.80),
    ("C/C(=C\\c1ccccc1)CN1CCC(Nc2nccn(Cc3cccc(CN4CCOCC4)c3)c2=O)CC1", 2.90),
    ("C/C(=C\\c1ccccc1)CN1CCC(Nc2nccn(-c3ccc(CNCCN4CCOCC4)cc3)c2=O)CC1", 2.90),
    ("COCCCn1ccnc(NC2CCN(C/C(C)=C/c3ccccc3)CC2)c1=O", 3.60),
    ("O=c1c(NC2CCN(C/C=C/c3ccccc3)CC2)nccn1Cc1ccc2ccccc2c1", 2.60),
    ("C/C(=C\\c1ccccc1)CN1CCN(c2nccn(CCCNC(=O)OC(C)(C)C)c2=O)CC1", 3.40),
    ("C/C(=C\\c1ccccc1)CN1CCC(Nc2nccn(CCCNS(=O)(=O)c3ccccc3)c2=O)CC1", 2.20),
    ("C/C(=C\\c1ccccc1)CN1CCC(Nc2nccn(-c3ccc(C(=O)NC4CCN(Cc5ccccc5)CC4)cc3)c2=O)CC1", 2.70),
    ("CCCC(=O)NCCCn1ccnc(NC2CCN(C/C(C)=C/c3ccccc3)CC2)c1=O", 3.40),
    ("COCCOCCn1ccnc(NC2CCN(C/C(C)=C/c3ccccc3)CC2)c1=O", 3.60),
]

Where these numbers come from: patent US20090111801A1
